# ASSAY NOTES: Solubility of amorphous substance in solvent systems (supersaturated solution, oscillated 24 h at room temperature, HPLC)
# Type: physicochemical
# ASSAY CONTEXT: solvent mixture, aqueous with cosolvent or surfactant or cyclodextrin, thermodynamic from solid, Dehydrated alcohol 50%-PEG400 20%-water 30% (w/w); read-out: Solubility
RESULT TYPE: solubility at 24 h

>>> result("Cc1ncsc1-c1ccc(CNC(=O)[C@@H]2C[C@@H](O)CN2C(=O)[C@@H](NC(=O)COCCCCOc2ccc(-c3ccc(N4C(=S)N(c5ccc(C#N)c(C(F)(F)F)c5F)C(=O)C4(C)C)cn3)cc2)C(C)(C)C)cc1")
"> 51.5 mg/mL"

---

# ASSAY NOTES: Distribution of compound in sebaceous glands and blood of golden hamsters after single skin application
# Format: in vivo
# ASSAY CONTEXT: male, hamster, right sebaceous gland, topical, 4 mg, Right sebaceous gland, dose 4 mg, 8 h, individual animals No. 4-6; read-out: Concentration in sebaceous glands
RESULT TYPE: concentration at 8 h (ng/mL)

>>> result_number("Cc1ncsc1-c1ccc(CNC(=O)[C@@H]2C[C@@H](O)CN2C(=O)[C@@H](NC(=O)COCCCCOc2ccc(-c3ccc(N4C(=S)N(c5ccc(C#N)c(C(F)(F)F)c5F)C(=O)C4(C)C)cn3)cc2)C(C)(C)C)cc1")
26600

---

# ASSAY NOTES: Solubility of amorphous substance in solvent systems (supersaturated solution, oscillated 24 h at room temperature, HPLC)
# Type: physicochemical
# ASSAY CONTEXT: dehydrated alcohol-propylene glycol-water solvent mixture, aqueous with cosolvent or surfactant or cyclodextrin, thermodynamic from solid, Dehydrated alcohol 30%-propylene glycol 20%-water 50% (w/w); read-out: Solubility
RESULT TYPE: solubility at 24 h

>>> result("Cc1ncsc1-c1ccc(CNC(=O)[C@@H]2C[C@@H](O)CN2C(=O)[C@@H](NC(=O)COCCCCOc2ccc(-c3ccc(N4C(=S)N(c5ccc(C#N)c(C(F)(F)F)c5F)C(=O)C4(C)C)cn3)cc2)C(C)(C)C)cc1")
"2520 µg/mL"

---

# ASSAY NOTES: Solubility of amorphous substance in solvent systems (supersaturated solution, oscillated 24 h at room temperature, HPLC)
# Assay type: physicochemical
# ASSAY CONTEXT: dehydrated alcohol-PEG400-water solvent mixture, aqueous with cosolvent or surfactant or cyclodextrin, thermodynamic from solid, Dehydrated alcohol 30%-PEG400 20%-water 50% (w/w); read-out: Solubility
RESULT TYPE: solubility at 24 h (µg/mL)

>>> result_number("Cc1ncsc1-c1ccc(CNC(=O)[C@@H]2C[C@@H](O)CN2C(=O)[C@@H](NC(=O)COCCCCOc2ccc(-c3ccc(N4C(=S)N(c5ccc(C#N)c(C(F)(F)F)c5F)C(=O)C4(C)C)cn3)cc2)C(C)(C)C)cc1")
1950

---

# ASSAY NOTES: Solubility of amorphous substance in solvent systems (supersaturated solution, oscillated 24 h at room temperature, HPLC)
# Assay type: physicochemical
# ASSAY CONTEXT: solvent mixture, aqueous with cosolvent or surfactant or cyclodextrin, thermodynamic from solid, Dehydrated alcohol 40%-glycerin 50%-water 10% (w/w); read-out: Solubility
RESULT TYPE: solubility at 24 h (mg/mL)

>>> result_number("Cc1ncsc1-c1ccc(CNC(=O)[C@@H]2C[C@@H](O)CN2C(=O)[C@@H](NC(=O)COCCCCOc2ccc(-c3ccc(N4C(=S)N(c5ccc(C#N)c(C(F)(F)F)c5F)C(=O)C4(C)C)cn3)cc2)C(C)(C)C)cc1")
40

---

# ASSAY NOTES: Solubility of amorphous substance in solvent systems (supersaturated solution, oscillated 24 h at room temperature, HPLC)
# Format: physicochemical
# ASSAY CONTEXT: dehydrated alcohol-PEG400-water solvent mixture, aqueous with cosolvent or surfactant or cyclodextrin, thermodynamic from solid, Dehydrated alcohol 20%-PEG400 20%-water 60% (w/w); read-out: Solubility
RESULT TYPE: solubility at 24 h

>>> result("Cc1ncsc1-c1ccc(CNC(=O)[C@@H]2C[C@@H](O)CN2C(=O)[C@@H](NC(=O)COCCCCOc2ccc(-c3ccc(N4C(=S)N(c5ccc(C#N)c(C(F)(F)F)c5F)C(=O)C4(C)C)cn3)cc2)C(C)(C)C)cc1")
"160 µg/mL"

---

# ASSAY NOTES: Solubility of amorphous substance in solvent systems (supersaturated solution, oscillated 24 h at room temperature, HPLC)
# Format: physicochemical
# ASSAY CONTEXT: dehydrated alcohol-propylene glycol-water solvent mixture, aqueous with cosolvent or surfactant or cyclodextrin, thermodynamic from solid, Dehydrated alcohol 35%-propylene glycol 50%-water 15% (w/w); read-out: Solubility
RESULT TYPE: solubility at 24 h

>>> result("Cc1ncsc1-c1ccc(CNC(=O)[C@@H]2C[C@@H](O)CN2C(=O)[C@@H](NC(=O)COCCCCOc2ccc(-c3ccc(N4C(=S)N(c5ccc(C#N)c(C(F)(F)F)c5F)C(=O)C4(C)C)cn3)cc2)C(C)(C)C)cc1")
"> 189 mg/mL"

---

# ASSAY NOTES: Solubility of amorphous substance in solvent systems (supersaturated solution, oscillated 24 h at room temperature, HPLC)
# Assay type: physicochemical
# ASSAY CONTEXT: dehydrated alcohol 20%: water 80% (w/w), aqueous with cosolvent or surfactant or cyclodextrin, thermodynamic from solid, Dehydrated alcohol 20%: water 80% (w/w); read-out: 24 h solubility
RESULT TYPE: solubility at 24 h (µg/mL)

>>> result_number("Cc1ncsc1-c1ccc(CNC(=O)[C@@H]2C[C@@H](O)CN2C(=O)[C@@H](NC(=O)COCCCCOc2ccc(-c3ccc(N4C(=S)N(c5ccc(C#N)c(C(F)(F)F)c5F)C(=O)C4(C)C)cn3)cc2)C(C)(C)C)cc1")
140

---

# ASSAY NOTES: Solubility of amorphous substance in solvent systems (supersaturated solution, oscillated 24 h at room temperature, HPLC)
# Format: physicochemical
# ASSAY CONTEXT: dehydrated alcohol-PEG400-water solvent mixture, aqueous with cosolvent or surfactant or cyclodextrin, thermodynamic from solid, Dehydrated alcohol 10%-PEG400 20%-water 70% (w/w); read-out: Solubility
RESULT TYPE: solubility at 24 h (µg/mL)

>>> result_number("Cc1ncsc1-c1ccc(CNC(=O)[C@@H]2C[C@@H](O)CN2C(=O)[C@@H](NC(=O)COCCCCOc2ccc(-c3ccc(N4C(=S)N(c5ccc(C#N)c(C(F)(F)F)c5F)C(=O)C4(C)C)cn3)cc2)C(C)(C)C)cc1")
20

---

# ASSAY NOTES: Solubility of amorphous substance in solvent systems (supersaturated solution, oscillated 24 h at room temperature, HPLC)
# Type: physicochemical
# ASSAY CONTEXT: dehydrated alcohol-PEG400-water solvent mixture, aqueous with cosolvent or surfactant or cyclodextrin, thermodynamic from solid, Dehydrated alcohol 40%-PEG400 10%-water 50% (w/w); read-out: Solubility
RESULT TYPE: solubility at 24 h (µg/mL)

>>> result_number("Cc1ncsc1-c1ccc(CNC(=O)[C@@H]2C[C@@H](O)CN2C(=O)[C@@H](NC(=O)COCCCCOc2ccc(-c3ccc(N4C(=S)N(c5ccc(C#N)c(C(F)(F)F)c5F)C(=O)C4(C)C)cn3)cc2)C(C)(C)C)cc1")
3350

---

# ASSAY NOTES: Solubility of amorphous substance in solvent systems (supersaturated solution, oscillated 24 h at room temperature, HPLC)
# Type: physicochemical
# ASSAY CONTEXT: dehydrated alcohol 20%-propylene glycol 30%-water 50% (w/w), aqueous with cosolvent or surfactant or cyclodextrin, thermodynamic from solid, Dehydrated alcohol 20%-propylene glycol 30%-water 50% (w/w); read-out: Solubility
RESULT TYPE: solubility at 24 h (mg/mL)

>>> result_number("Cc1ncsc1-c1ccc(CNC(=O)[C@@H]2C[C@@H](O)CN2C(=O)[C@@H](NC(=O)COCCCCOc2ccc(-c3ccc(N4C(=S)N(c5ccc(C#N)c(C(F)(F)F)c5F)C(=O)C4(C)C)cn3)cc2)C(C)(C)C)cc1")
0.44

---

# ASSAY NOTES: Solubility of amorphous substance in solvent systems (supersaturated solution, oscillated 24 h at room temperature, HPLC)
# Type: physicochemical
# ASSAY CONTEXT: dehydrated alcohol-propylene glycol-water solvent mixture, aqueous with cosolvent or surfactant or cyclodextrin, thermodynamic from solid, Dehydrated alcohol 50%-propylene glycol 30%-water 20% (w/w); read-out: Solubility
RESULT TYPE: solubility at 24 h

>>> result("Cc1ncsc1-c1ccc(CNC(=O)[C@@H]2C[C@@H](O)CN2C(=O)[C@@H](NC(=O)COCCCCOc2ccc(-c3ccc(N4C(=S)N(c5ccc(C#N)c(C(F)(F)F)c5F)C(=O)C4(C)C)cn3)cc2)C(C)(C)C)cc1")
"> 69.3 mg/mL"

---

# ASSAY NOTES: Solubility of amorphous substance in solvent systems (supersaturated solution, oscillated 24 h at room temperature, HPLC)
# Type: physicochemical
# ASSAY CONTEXT: solvent mixture, aqueous with cosolvent or surfactant or cyclodextrin, thermodynamic from solid, Dehydrated alcohol 40%-glycerin 30%-water 30% (w/w); read-out: Solubility
RESULT TYPE: solubility at 24 h (µg/mL)

>>> result_number("Cc1ncsc1-c1ccc(CNC(=O)[C@@H]2C[C@@H](O)CN2C(=O)[C@@H](NC(=O)COCCCCOc2ccc(-c3ccc(N4C(=S)N(c5ccc(C#N)c(C(F)(F)F)c5F)C(=O)C4(C)C)cn3)cc2)C(C)(C)C)cc1")
8840
